Assay: qHTS assay for small molecule agonists of the antioxidant response element (ARE) signaling pathway (AID 651741); for activation: % of control where 0% means no effect
Details: HepG2 ARE-bla reporter, beta-lactamase FRET ratio, 16 h; series mostly up to 96 µM
Records with an inconclusive call do not appear. Calls of active or inactive are those of the source. Calls come from the whole dose curve; as a rule, active = well fitted activation curve with a large enough effect in the signal ratio; inconclusive = small, poorly fitted or top-dose-only effect, or effect the other way, or a change in a side signal; inactive = flat fitted curve, though single readings scatter; the % refers to the signal ratio.
Possible outcomes: active, inactive

>>> cat("Cc1[nH]c(=O)c(C#N)cc1-c1ccncc1")
"inactive"
>>> cat("O=C1CCC(N2C(=O)c3ccccc3C2=O)C(=O)N1 (stereo unspecified)")
"inactive"
>>> cat("NC(=O)c1cnccn1")
"inactive"
>>> cat("Cc1ccccc1C(OCCN(C)C)c1ccccc1 (stereo unspecified)")
"inactive"
>>> cat("COc1ccc2nc(S(=O)Cc3ncc(C)c(OC)c3C)[nH]c2c1 (stereo unspecified)")
"active"
>>> cat("CNC[C@H](O)c1cccc(O)c1")
"inactive"

---

Test: qHTS assay for small molecule activators of the nuclear factor-kappa B (NF-kB) signaling pathway (AID 651749); note: % of control where 0% means no effect
Conditions: NF-kB-bla ME-180 cells, beta-lactamase FRET ratio, 16 h; stronger effect = higher value
Records with an inconclusive call do not appear. Activity calls are given as the source filed them. Calls come from the whole dose curve; as a rule, active = well fitted activation curve with a large enough effect in the signal ratio; inconclusive = small, poorly fitted or top-dose-only effect, or a change in a side signal; inactive = flat fitted curve, though single readings scatter; the % refers to the signal ratio.
property.label: activation

>>> result("NC(N)=NC(=O)c1nc(Cl)c(N)nc1N")
"-0.363% (inactive)"
>>> result("O=c1[nH]cnc2[nH]ncc12")
"1.17% (inactive)"
>>> result("O=C1CCC(N2C(=O)c3ccccc3C2=O)C(=O)N1 (configuration not stated)")
"-0.119% (inactive)"
>>> result("O=NN(CCCl)C(=O)NCCCl")
"-1.3% (inactive)"
>>> result("CNC[C@H](O)c1cccc(O)c1")
"-0.433% (inactive)"
>>> result("COc1ccc2nc(S(=O)Cc3ncc(C)c(OC)c3C)[nH]c2c1 (configuration not stated)")
"-0.714% (inactive)"
>>> result("CC(C)(Sc1ccc(CCN(CCCCC2CCCCC2)C(=O)NC2CCCCC2)cc1)C(=O)O")
"7.6% (inactive)"

---

Experiment: Cell Proliferation Assay against the TMD8 Cell Line (AID 651645);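 note: cells exposed to compound for 48 h before reading; 100% = DMSO and 0% = 9.2 µM bortezomib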
Settings: TMD8 DLBCL cell line proliferation/viability; at 46.1 µM (top of the series) unless noted
property.label: viability (% of control) (%)

>>> numeric_result("CCCCCCCc1ccc(CCc2cccc(O)c2C(=O)O)cc1")
64.1
>>> numeric_result("COc1cc2nccc(Oc3ccc(NC(=O)NC4CC4)c(Cl)c3)c2cc1C(N)=O")
30.4
>>> numeric_result("CCOc1ccc(Cc2cc([C@@H]3O[C@H](CO)[C@@H](O)[C@H](O)[C@@H]3O)ccc2Cl)cc1")
87.2
>>> numeric_result("O=C(OCC#CCSc1nnc(-c2ccc3ccccc3c2)o1)c1cc2ccccc2s1")
90
>>> numeric_result("Cc1cc(-c2ccc(CC(=O)Nc3ccc(-c4cccnc4)cc3)cc2)ccn1")
62.3
>>> numeric_result("Cc1cc(-c2nnc3n2CCCCC3)c(C)n1-c1ccc(F)cc1")
6.21
>>> numeric_result("COc1ccc(CC2=NN3C([C@@H](CCc4ccccc4)[C@@H](C)O)=NC(C)C3C(=O)N2)cc1OC (stereo not given in full)")
72.3
>>> numeric_result("C/C(=C\\C(=O)Nc1ccccc1C(=O)O)c1ccc2ccccc2c1")
53.7
>>> numeric_result("CCCS(=O)(=O)Nc1ccc(F)c(C(=O)c2c[nH]c3ncc(Cl)cc23)c1F")
68.5
>>> numeric_result("C[C@@H]1CN(Cc2ccc(F)cc2)[C@@H](C)CN1C(=O)c1cc2c(C(=O)C(=O)N(C)C)cn(C)c2cc1Cl")
61.8
>>> numeric_result("O=S(=O)(N=Cc1c(O)ccc2ccccc12)c1cccs1")
49.7
>>> numeric_result("CC(C)OC(=O)C1=CN(C(=O)c2ccc(F)c(F)c2)CC(C)(C)c2c1[nH]c1ccccc21")
9.41
>>> numeric_result("COc1cc(Nc2ncc3c(n2)-c2ccc(Cl)cc2C(c2c(F)cccc2OC)=NC3)ccc1C(=O)O")
31.4
>>> numeric_result("CCC(=O)N[C@H]1CC[C@H](C(=O)N(C)c2ccc(-c3nc4ccccc4o3)cc2)C1")
77.3
>>> numeric_result("COc1nc(-c2ccc3c(c2)OCO3)n(-c2ccc(NC(=O)CSc3ccccc3)cc2)n1")
60.1
>>> numeric_result("Cc1cnc(Nc2ccc(OCCN3CCCC3)cc2)nc1Nc1cccc(S(=O)(=O)NC(C)(C)C)c1")
90.7
>>> numeric_result("Cc1oncc1C(=O)Nc1ccc(C(F)(F)F)cc1")
54
>>> numeric_result("NC(=O)C1CCCc2c1[nH]c1ccc(Cl)cc21 (stereo not given)")
94.1
>>> numeric_result("O=C(C=Cc1ccc(/C=C/C(=O)Nc2ccc(C3=NCCN3)cc2)cc1)Nc1ccc(C2=NCCN2)cc1")
92.1
